target: Keap1 Kelch protein (Homo sapiens); construct: made in house; host or cells: E. coli BL21 CodonPlus; assay: Differential scanning fluorimetry (DSF) thermal shift screen; format: binding; conditions: pH 7.4, 10 μM peptide, 10% DMSO, DPBS pH 7.4, 30 min at RT, 25-95 °C at 1 °C/min, triplicate; Keap1 Kelch Tm 47.0±0.1 °C
Sequence (Q14145 321-609 limits assumed): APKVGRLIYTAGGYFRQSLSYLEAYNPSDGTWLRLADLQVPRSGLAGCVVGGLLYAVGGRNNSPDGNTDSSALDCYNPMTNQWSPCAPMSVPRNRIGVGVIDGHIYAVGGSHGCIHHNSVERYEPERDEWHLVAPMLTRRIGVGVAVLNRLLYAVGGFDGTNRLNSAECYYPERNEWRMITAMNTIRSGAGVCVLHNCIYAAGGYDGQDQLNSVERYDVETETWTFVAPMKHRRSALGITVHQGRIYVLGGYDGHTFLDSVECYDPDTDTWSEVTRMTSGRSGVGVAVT
Where a SMILES comes first, the peptide text is derived from it. The star is where a group is joined. X1 = CC(C)C[C@H](N*)c1nnn[nH]1
Measured attribute: ΔTm at 10 µM (°C)
Return type: number; implicit unit °C.

**Q:** Look up ΔTm at 10 µM of CC(=O)N[C@@H](CC(=O)O)C(=O)N1CCC[C@H]1C(=O)N[C@@H](CCC(=O)O)C(=O)N[C@H](C(=O)NCC(=O)N[C@@H](CCC(=O)O)C(=O)N[C@@H](CC(C)C)c1nnn[nH]1)[C@@H](C)O [compound 8, Ac‐Asp‐Pro‐Glu‐Thr‐Gly‐Glu‐Leu‐TET] (Ac-DPETGE-X1) and report it.
**A:** 6.2

====

biological target: Keap1 Kelch domain (Homo sapiens); construct: made in house; host or cells: E. coli BL21 CodonPlus; experiment: Fluorescence polarisation (FP) competition assay; type: binding; details: estimated from FP IC50 by the method described by Kenakin (ref 14); read-out: FP calcd Ki
Measured attribute: Ki (nM)
Return type: number; implicit unit nM.

**Q:** Look up Ki of Ac-DPENGEL-OH [compound 14, Ac‐Asp‐Pro‐Glu‐Asn‐Gly‐Glu‐Leu‐OH] and report it.
**A:** 1280

====

target: Keap1 Kelch protein (Homo sapiens); construct: made in house; host or cells: E. coli BL21 CodonPlus; assay: Differential scanning fluorimetry (DSF) thermal shift screen; format: binding; conditions: pH 7.4, 10 μM peptide, 10% DMSO, DPBS pH 7.4, 30 min at RT, 25-95 °C at 1 °C/min, triplicate; Keap1 Kelch Tm 47.0±0.1 °C
Where a SMILES comes first, the peptide text is derived from it. [ ]: non-standard residue; d: D form. The star is where a group is joined. Pip = O=C(O)[C@@H]1CCCCN1; Thz = O=C(O)[C@@H]1CSCN1; NHIsopentyl = CC(C)CCN*
ΔTm at 10 µM by entry:

Molecule	Measurement target	ΔTm at 10 µM
CC(=O)N[C@@H](CC(=O)O)C(=O)N1CSC[C@H]1C(=O)N[C@@H](CCC(=O)O)C(=O)N[C@H](C(=O)NCC(=O)N[C@@H](CCC(=O)O)C(=O)N[C@@H](CC(C)C)C(=O)O)[C@@H](C)O [compound 15, Ac‐Asp‐Thp‐Glu‐Thr‐Gly‐Glu‐Leu‐OH] (Ac-D[Thz]ETGEL-OH)	Keap1 Kelch protein (Homo sapiens)	8.3 °C
CC(=O)N[C@@H](CC(=O)O)C(=O)N1CCCC[C@H]1C(=O)N[C@@H](CCC(=O)O)C(=O)N[C@H](C(=O)NCC(=O)N[C@@H](CCC(=O)O)C(=O)N[C@@H](CC(C)C)C(=O)O)[C@@H](C)O [compound 16, Ac‐Asp‐Pip‐Glu‐Thr‐Gly‐Glu‐Leu‐OH] (Ac-D[Pip]ETGEL-OH)	Keap1 Kelch protein (Homo sapiens)	~2 °C

**Q:** Look up ΔTm at 10 µM of CC(=O)N[C@@H](CC(=O)O)C(=O)N1CCC[C@H]1C(=O)N[C@@H](CCC(=O)O)C(=O)N[C@H](C(=O)NCC(=O)N[C@@H](CCC(=O)O)C(=O)N[C@@H](CC(C)C)C(=O)NCCC(C)C)[C@@H](C)O [compound 6] (Ac-DPETGEL-NHIsopentyl) and report it.
**A:** ~2 °C

====

biological target: Keap1 Kelch protein (Homo sapiens); construct: made in house; host or cells: E. coli BL21 CodonPlus; experiment: Differential scanning fluorimetry (DSF) thermal shift screen; format: binding; conditions: pH 7.4, 10 μM peptide, 10% DMSO, DPBS pH 7.4, 30 min at RT, 25-95 °C at 1 °C/min, triplicate; Keap1 Kelch Tm 47.0±0.1 °C
Where a SMILES comes first, the peptide text is derived from it. [ ]: non-standard residue; d: D form. 2Thi = N[C@@H](Cc1cccs1)C(=O)O; Cha = N[C@@H](CC1CCCCC1)C(=O)O; Tle = CC(C)(C)[C@H](N)C(=O)O
ΔTm at 10 µM by entry:
Return type: number; implicit unit °C.

These solved cases illustrate the format of a correct answer.
Compound	Unit symbol	ΔTm at 10 µM
CC(=O)N[C@@H](CC(=O)O)C(=O)N1CCC[C@H]1C(=O)N[C@@H](CCC(=O)O)C(=O)N[C@H](C(=O)NCC(=O)N[C@@H](CCC(=O)O)C(=O)N[C@H](C(=O)O)C(C)(C)C)[C@@H](C)O [compound 9, Ac‐Asp‐Pro‐Glu‐Thr‐Gly‐Glu‐Tle‐OH] (Ac-DPETGE[Tle]-OH)	°C	5.8
CC(=O)N[C@@H](CC(=O)O)C(=O)N1CCC[C@H]1C(=O)N[C@@H](CCC(=O)O)C(=O)N[C@H](C(=O)NCC(=O)N[C@@H](CCC(=O)O)C(=O)N[C@@H](CC1CCCCC1)C(=O)O)[C@@H](C)O [compound 11, Ac‐Asp‐Pro‐Glu‐Thr‐Gly‐Glu‐Cha‐OH] (Ac-DPETGE[Cha]-OH)	°C	5.8

**Q:** // fetch ΔTm at 10 µM; item: CC(=O)N[C@@H](CC(=O)O)C(=O)N1CCC[C@H]1C(=O)N[C@@H](CCC(=O)O)C(=O)N[C@H](C(=O)NCC(=O)N[C@@H](CCC(=O)O)C(=O)N[C@@H](Cc1cccs1)C(=O)O)[C@@H](C)O [compound 10, Ac‐Asp‐Pro‐Glu‐Thr‐Gly‐Glu‐Thi‐OH] (Ac-DPETGE[2Thi]-OH) ; system: Keap1 Kelch protein (Homo sapiens)
**A:** 5.3

====

target: Keap1 Kelch domain (Homo sapiens, UniProt Q14145)
Sequence (Q14145 321-609 limits assumed): as above
Where a SMILES comes first, the peptide text is derived from it. [ ]: non-standard residue; d: D form. The star is where a group is joined. 2Thi = N[C@@H](Cc1cccs1)C(=O)O; Cha = N[C@@H](CC1CCCCC1)C(=O)O; X1 = CC(C)C[C@H](N*)c1nnn[nH]1; Pip = O=C(O)[C@@H]1CCCCN1; Thz = O=C(O)[C@@H]1CSCN1; NHIsopentyl = CC(C)CCN*; NHBn = c1ccc(CN*)cc1
# 1 = Ki below 100 nM (exclusive); 0 = Ki at/above 100 nM

Solved entries:
Compound	Measurement target	Assigned class
CC(=O)N[C@@H](CC(=O)O)C(=O)N1CCC[C@H]1C(=O)N[C@@H](CCC(=O)O)C(=O)N[C@H](C(=O)NCC(=O)N[C@@H](CCC(=O)O)C(=O)N[C@@H](CC(C)C)C(=O)NCc1ccccc1)[C@@H](C)O [compound 7, Ac‐Asp‐Pro‐Glu‐Thr‐Gly‐Glu‐Leu‐NH‐Bn] (Ac-DPETGEL-NHBn)	Keap1 Kelch domain (Homo sapiens, UniProt Q14145)	0
CC(=O)N[C@@H](CC(=O)O)C(=O)N1CCC[C@H]1C(=O)N[C@@H](CCC(=O)O)C(=O)N[C@H](C(=O)NCC(=O)N[C@@H](CCC(=O)O)C(=O)N[C@@H](CC1CCCCC1)C(=O)O)[C@@H](C)O [compound 11, Ac‐Asp‐Pro‐Glu‐Thr‐Gly‐Glu‐Cha‐OH] (Ac-DPETGE[Cha]-OH)	Keap1 Kelch domain (Homo sapiens, UniProt Q14145)	1
CC(=O)N[C@@H](CC(=O)O)C(=O)N1CSC[C@H]1C(=O)N[C@@H](CCC(=O)O)C(=O)N[C@H](C(=O)NCC(=O)N[C@@H](CCC(=O)O)C(=O)N[C@@H](CC(C)C)C(=O)O)[C@@H](C)O [compound 15, Ac‐Asp‐Thp‐Glu‐Thr‐Gly‐Glu‐Leu‐OH] (Ac-D[Thz]ETGEL-OH)	Keap1 Kelch domain (Homo sapiens, UniProt Q14145)	1

**Q:** Record CC(=O)N[C@@H](CC(=O)O)C(=O)N1CCC[C@H]1C(=O)N[C@@H](CCC(=O)O)C(=O)N[C@H](C(=O)NCC(=O)N[C@@H](CCC(=O)O)C(=O)N[C@@H](CC(C)C)C(=O)NCCC(C)C)[C@@H](C)O [compound 6] (Ac-DPETGEL-NHIsopentyl) : is its Ki strictly below 100 nM?
**A:** 0

**Q:** Record CC(=O)N[C@@H](CC(=O)O)C(=O)N1CCC[C@H]1C(=O)N[C@@H](CCC(=O)O)C(=O)N[C@H](C(=O)NCC(=O)N[C@@H](CCC(=O)O)C(=O)N[C@@H](Cc1cccs1)C(=O)O)[C@@H](C)O [compound 10, Ac‐Asp‐Pro‐Glu‐Thr‐Gly‐Glu‐Thi‐OH] (Ac-DPETGE[2Thi]-OH) : is its Ki strictly below 100 nM?
**A:** 0

**Q:** Record CC(=O)N[C@@H](CC(=O)O)C(=O)N1CCC[C@H]1C(=O)N[C@@H](CCC(=O)O)C(=O)N[C@H](C(=O)NCC(=O)N[C@@H](CCC(=O)O)C(=O)N[C@@H](CC(C)C)c1nnn[nH]1)[C@@H](C)O [compound 8, Ac‐Asp‐Pro‐Glu‐Thr‐Gly‐Glu‐Leu‐TET] (Ac-DPETGE-X1) : is its Ki strictly below 100 nM?
**A:** 0

**Q:** Record CC(=O)N[C@@H](CC(=O)O)C(=O)N1CCCC[C@H]1C(=O)N[C@@H](CCC(=O)O)C(=O)N[C@H](C(=O)NCC(=O)N[C@@H](CCC(=O)O)C(=O)N[C@@H](CC(C)C)C(=O)O)[C@@H](C)O [compound 16, Ac‐Asp‐Pip‐Glu‐Thr‐Gly‐Glu‐Leu‐OH] (Ac-D[Pip]ETGEL-OH) : is its Ki strictly below 100 nM?
**A:** 0
